We begin with a simple list: items and their reported normalized RNA/DNA level without ligand (log10).
B1: library; a variant is named by its letters at N, in order (parent)
chain: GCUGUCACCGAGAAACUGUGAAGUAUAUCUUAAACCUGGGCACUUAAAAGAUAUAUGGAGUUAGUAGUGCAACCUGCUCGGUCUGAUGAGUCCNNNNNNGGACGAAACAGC

- Variants of: B1
- assay_protocol: normalized RNA/DNA level without ligand (relative to sTRSVctl = 100) (log10 (% of sTRSVctl)); HEK293T; ligand: cyclic di-GMP (c-di-GMP-II aptamer); higher = less ribozyme self-cleavage, higher mRNA level
- condition_description: reporter: mCherry (pCS4076), ligand present: no
outcome_measure: normalized RNA/DNA level without ligand (log10)

[[record]]
variant_spec = "UUUGCU"
measured_number = 1.76

[[record]]
variant_spec = "UAACCU"
measured_number = 1.71

[[record]]
variant_spec = "AACGUA"
measured_number = 1.51

[[record]]
variant_spec = "UACUGG"
measured_number = 1.73

[[record]]
variant_spec = "AUGCCG"
measured_number = 1.75

[[record]]
variant_spec = "ACGAGG"
measured_number = 1.5

[[record]]
variant_spec = "UUCCGG"
measured_number = 1.84

[[record]]
variant_spec = "GGAUGC"
measured_number = 1.7

[[record]]
variant_spec = "UGAGCG"
measured_number = 1.8

[[record]]
variant_spec = "UCUAGC"
measured_number = 1.69

[[record]]
variant_spec = "UCGUCA"
measured_number = 1.64

[[record]]
variant_spec = "UACAGU"
measured_number = 1.62

[[record]]
variant_spec = "AUAUAU"
measured_number = 1.68


Provenance of the data: the supplement of paper PMC6757056
